settings: 293.2 K; 101.33 kPa; Liquid
Numbers after ± are expanded uncertainties.
quantity-name: mass density
Please make sure the unit comes right after the number.

- CC(=O)OC1CCCCC1 [cyclohexyl ethanoate]: 970.3 ± 0.3 kg/m3
- Clc1ccccc1: 1106.2 ± 0.4 kg/m3
- OCC1CCCO1 (stereo not given) [2-tetrahydrofurylmethanol]: 1055.1 ± 0.6 kg/m3
- OC1CCCCC1: 963.5 ± 9.6 kg/m3

mass density recorded for this compound, C1CCCCC1 , is 779.3 ± 0.6 kg/m3

====

test: refractive index (Na D-line) (dimensionless); conditions: 293.2 K; 101.33 kPa; Liquid; Standard Abbe refractometry
Parameter: refractive index. Scope: all listed entries.
Reply with just the number.

Known results for compounds:
* CC(=O)OC1CCCCC1 [cyclohexyl ethanoate] | 1.441
* Clc1ccccc1 | 1.5244
* O | 1.3326

refractive index reported for this compound C1CCCCC1 : 1.4269

// field: refractive index; key: OC1CCCCC1 ; value = 1.4648

Reported refractive index for OCC1CCCO1 (stereo unspecified) [2-tetrahydrofurylmethanol] was 1.4525
